Values compiled from ChEMBL document CHEMBL6092176.

experiment: MRT(0 to t) in C57BL/6 mouse at 10 mg/kg, ip measured upto 24 hrs; format: ADME, organism-based; settings: in vivo
outcome measure: MRT last at 24 h (h)
Numbers only, in h.

Per the record, O=C(c1cnn2c(C(F)F)cc(-c3ccc(Cl)cc3)nc12)N1C[C@H]2CCCC[C@H]2C1 has MRT last at 24 h of 2.55

---

target: Toll-like receptor 4 (Homo sapiens); assay: Inhibition of TLR4 (unknown origin) homodimerization
Sequence (O00206 whole entry): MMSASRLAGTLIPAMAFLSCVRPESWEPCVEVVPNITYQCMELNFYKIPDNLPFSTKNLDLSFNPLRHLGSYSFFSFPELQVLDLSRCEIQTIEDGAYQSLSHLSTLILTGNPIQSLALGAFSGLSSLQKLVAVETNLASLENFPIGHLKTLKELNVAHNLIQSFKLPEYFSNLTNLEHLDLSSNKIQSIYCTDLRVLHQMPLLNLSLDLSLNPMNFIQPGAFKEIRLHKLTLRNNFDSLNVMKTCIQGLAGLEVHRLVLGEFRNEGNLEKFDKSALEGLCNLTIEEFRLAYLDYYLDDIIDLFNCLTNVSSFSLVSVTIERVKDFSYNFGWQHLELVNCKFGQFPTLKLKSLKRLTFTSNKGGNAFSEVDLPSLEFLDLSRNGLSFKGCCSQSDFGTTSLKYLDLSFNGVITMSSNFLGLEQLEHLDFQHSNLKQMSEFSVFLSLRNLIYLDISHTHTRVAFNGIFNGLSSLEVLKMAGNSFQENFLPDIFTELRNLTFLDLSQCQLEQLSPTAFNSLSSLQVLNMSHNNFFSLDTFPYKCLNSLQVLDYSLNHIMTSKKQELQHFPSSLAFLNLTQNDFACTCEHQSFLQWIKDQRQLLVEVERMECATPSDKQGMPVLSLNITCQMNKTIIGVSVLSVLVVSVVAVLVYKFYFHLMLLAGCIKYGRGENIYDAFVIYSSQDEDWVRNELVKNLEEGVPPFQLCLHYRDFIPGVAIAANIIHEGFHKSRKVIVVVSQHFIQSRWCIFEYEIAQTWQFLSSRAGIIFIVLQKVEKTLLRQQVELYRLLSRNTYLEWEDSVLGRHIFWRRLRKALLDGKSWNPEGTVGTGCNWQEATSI
outcome measure: IC50

Per the record, Cc1ccc(-c2cc(C(F)F)n3ncc(C(=O)N4CCC5(CC4)OCCO5)c3n2)cc1 has IC50 of 14 µM
